The following molecules are listed with their measured IC50 values.
System: EW-1;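 note: growth inhibition of the human EW-1 cell line, read out by a cell viability assay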
Test: cells
Assay type: functional, cell-based
Conditions: Homo sapiens
Description: SANGER: Inhibition of human EW-1 cell growth in a cell viability assay.

# molecule, IC50
data = [
    ("O=c1[nH]c2ccccc2n1C1CCN(Cc2ccc(-c3nc4cc5[nH]cnc5cc4nc3-c3ccccc3)cc2)CC1", "> 2560 nM"),
    ("CC(O)(CS(=O)(=O)c1ccc(F)cc1)C(=O)Nc1ccc(C#N)c(C(F)(F)F)c1 (stereo not drawn) [BICALUTAMIDE]", "> 1020 nM"),
    ("Cc1nc(Nc2ncc(C(=O)Nc3c(C)cccc3Cl)s2)cc(N2CCN(CCO)CC2)n1", "> 1280 nM"),
]

----------
# key: entry, value: IC50
Test system: KE-37;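 note: growth inhibition of KE-37 cells, read out with a cell viability assay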
Assay: cells
Assay type: functional, cell-based
Details: Homo sapiens
Description: SANGER: Inhibition of human KE-37 cell growth in a cell viability assay.

# compound, assayTarget, IC50
measured = [
    ("CCNc1cc(N[C@H]2CC[C@@H](O)CC2)nc(Nc2ccc3c(ccn3Cc3ccccc3)c2)n1", "KE-37", "> 5120 nM"),
    ("Cn1cc(/C=C2\\C(=O)Nc3cccnc32)c2ccccc21", "KE-37", "> 2000 nM"),
    ("Cc1nc(Nc2ncc(C(=O)Nc3c(C)cccc3Cl)s2)cc(N2CCN(CCO)CC2)n1 [DASATINIB]", "KE-37", "> 1280 nM"),
]

----------
System: A388
Test: cells
Type: functional, cell-based
Conditions: Homo sapiens
Description: SANGER: Inhibition of human A388 cell growth in a cell viability assay.

# compound, IC50
measured = [
    ("CCn1c(-c2nonc2N)nc2cnc(Oc3cccc(NC(=O)c4ccc(OCCN5CCOCC5)cc4)c3)cc21 [GSK-269962A]", "> 2.5 µM"),
    ("C[C@]1(c2nc3c(C(N)=O)cccc3[nH]2)CCCN1 [VELIPARIB]", "> 5 µM"),
    ("CCCS(=O)(=O)Nc1ccc(F)c(C(=O)c2c[nH]c3ncc(Cl)cc23)c1F [PLX-4720]", "> 10 µM"),
]

----------
// reported IC50 for each item listed
Test system: KY821
Assay: cells
Type: functional, cell-based
Conditions: Homo sapiens
Description: SANGER: Inhibition of human KY821 cell growth in a cell viability assay.

# molecule, IC50
records = [
    ("Cc1[nH]c(/C=C2\\C(=O)Nc3ccc(S(=O)(=O)Cc4c(Cl)cccc4Cl)cc32)c(C)c1C(=O)N1CCC[C@@H]1CN1CCCC1", "> 2 µM"),
    ("CCNc1cc(N[C@H]2CC[C@@H](O)CC2)nc(Nc2ccc3c(ccn3Cc3ccccc3)c2)n1", "> 5.12 µM"),
    ("CC(O)(CS(=O)(=O)c1ccc(F)cc1)C(=O)Nc1ccc(C#N)c(C(F)(F)F)c1 (centres undefined) [BICALUTAMIDE]", "> 1.02 µM"),
    ("COc1cc(C)c(Sc2cnc(NC(=O)c3ccc(CNC(C)C(C)(C)C)cc3)s2)cc1C(=O)N1CCN(C(C)=O)CC1 (centres undefined)", "> 10.2 µM"),
]

----------
Test system: SF-126
Assay: cells
Assay type: functional, cell-based
Details: Homo sapiens
Description: SANGER: Inhibition of human SF126 cell growth in a cell viability assay.
pIC50: −log10 of the molar value.
reportedProperty: pIC50

# molecule, reportedProperty, endpointResult
data = [
    ("C/C(O)=C(\\C#N)C(=O)Nc1cc(Br)ccc1Br", "pIC50", "< 4.80"),
    ("N#C/C(=C1/Nc2ccccc2S1)c1ccnc(NCCc2cccnc2)n1", "pIC50", "< 5.10"),
    ("NC(=O)c1ncn([C@@H]2O[C@H](COP(=O)(O)O)[C@@H](O)[C@H]2O)c1N", "pIC50", "< 2.70"),
    ("COc1cc(C)c(Sc2cnc(NC(=O)c3ccc(CNC(C)C(C)(C)C)cc3)s2)cc1C(=O)N1CCN(C(C)=O)CC1 (stereo unspecified)", "pIC50", "< 4.99"),
    ("CCNc1cc(N[C@H]2CC[C@@H](O)CC2)nc(Nc2ccc3c(ccn3Cc3ccccc3)c2)n1", "pIC50", "< 5.29"),
    ("O=c1[nH]c2ccccc2n1C1CCN(Cc2ccc(-c3nc4cc5[nH]cnc5cc4nc3-c3ccccc3)cc2)CC1", "pIC50", "< 5.59"),
]
